molecular target: Desmoglein-3 (Homo sapiens) (UniProt P32926); experiment: blockers of anti-DSG3 scFv binding – biochemical, bead-based, flow cytometry, scFv-GFP, primary screen (AID 588358); settings: DSG3-coupled beads, at 10 µM, active compounds read low;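 note: hits lower antibody fragment binding to DSG3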
Sequence (P32926 whole entry, looked up, the tested form may be a part): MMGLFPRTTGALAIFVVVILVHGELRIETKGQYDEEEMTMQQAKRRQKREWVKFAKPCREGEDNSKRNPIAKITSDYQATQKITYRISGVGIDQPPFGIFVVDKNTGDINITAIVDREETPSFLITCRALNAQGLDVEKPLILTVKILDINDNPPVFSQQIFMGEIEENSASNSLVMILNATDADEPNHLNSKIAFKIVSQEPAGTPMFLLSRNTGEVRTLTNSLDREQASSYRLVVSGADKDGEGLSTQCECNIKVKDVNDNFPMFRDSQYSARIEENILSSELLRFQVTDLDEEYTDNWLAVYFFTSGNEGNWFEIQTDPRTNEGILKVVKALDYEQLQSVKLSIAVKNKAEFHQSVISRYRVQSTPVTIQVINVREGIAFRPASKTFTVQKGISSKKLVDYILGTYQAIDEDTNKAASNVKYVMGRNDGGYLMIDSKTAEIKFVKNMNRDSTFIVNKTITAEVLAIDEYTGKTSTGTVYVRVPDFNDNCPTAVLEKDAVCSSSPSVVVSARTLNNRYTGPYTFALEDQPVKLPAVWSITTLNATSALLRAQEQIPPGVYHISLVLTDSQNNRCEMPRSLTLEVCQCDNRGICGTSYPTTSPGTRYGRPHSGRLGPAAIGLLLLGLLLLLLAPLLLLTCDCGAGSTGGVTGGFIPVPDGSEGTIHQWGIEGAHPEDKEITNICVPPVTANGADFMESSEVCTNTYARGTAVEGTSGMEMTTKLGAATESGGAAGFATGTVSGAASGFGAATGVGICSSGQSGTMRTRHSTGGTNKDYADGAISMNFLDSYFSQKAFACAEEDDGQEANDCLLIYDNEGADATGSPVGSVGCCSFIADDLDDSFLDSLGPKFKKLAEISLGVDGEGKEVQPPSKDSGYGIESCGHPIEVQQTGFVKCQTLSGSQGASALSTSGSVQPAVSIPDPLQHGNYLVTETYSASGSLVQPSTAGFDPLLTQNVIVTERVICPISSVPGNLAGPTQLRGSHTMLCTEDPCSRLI
Hit rate of the full screen: of about 310,000 compounds, about 1,500 (0.48%) were called active. The list comes from a sample in which actives are over-represented; it also holds close analogues and randomly drawn compounds.
Some molecules, each annotated with its measured binding (percent of control).

MOLECULE	SYSTEM_TESTED	UNIT_SYMBOL	binding (percent of control)
Cc1cccc(C(=O)Nc2nnc(S(=O)(=O)N3CCCCCC3)s2)c1	Desmoglein-3 (Homo sapiens) (UniProt P32926)	%	29.9
Cc1nc(-c2ccc(Cl)cc2)sc1C(=O)NN	Desmoglein-3 (Homo sapiens) (UniProt P32926)	%	110
O=C(Nc1nnc(S(=O)(=O)N2CCCCCC2)s1)c1cccc(Br)c1	Desmoglein-3 (Homo sapiens) (UniProt P32926)	%	102
O=C(Nc1cccc(-n2cnnn2)c1)c1cccnc1	Desmoglein-3 (Homo sapiens) (UniProt P32926)	%	104
O=C(Nc1cccnc1Cl)c1cc(-c2ccccc2O)on1	Desmoglein-3 (Homo sapiens) (UniProt P32926)	%	92.4
C/C(=N/NC(=S)Nc1ccccc1)c1ccc2c(c1)OCO2	Desmoglein-3 (Homo sapiens) (UniProt P32926)	%	98.1
C=CCNC(=O)c1cc(-c2ccccc2O)on1	Desmoglein-3 (Homo sapiens) (UniProt P32926)	%	79.7
C/C(=N\NC(=S)Nc1ccc(C)cc1)c1cc2ccccc2o1	Desmoglein-3 (Homo sapiens) (UniProt P32926)	%	83.6
Cc1ccc(-c2nn(-c3ccccc3)cc2/C=C2\SC(=S)N(CCCCCC(=O)O)C2=O)o1	Desmoglein-3 (Homo sapiens) (UniProt P32926)	%	93.2
CCOC(=O)c1c(CN2CCOCC2)n(-c2ccccc2)c2ccc(O)cc12	Desmoglein-3 (Homo sapiens) (UniProt P32926)	%	107
CN(C)S(=O)(=O)c1cccc(-c2nn(-c3ccccc3)cc2/C=C2\SC(=S)N(CC(=O)O)C2=O)c1	Desmoglein-3 (Homo sapiens) (UniProt P32926)	%	34.1
C[C@@H]1CN([C@@H](C)CO)C(=O)c2c(c3ccccc3n2C)-c2ccccc2CO[C@H]1CN(C)C(=O)C1CC1	Desmoglein-3 (Homo sapiens) (UniProt P32926)	%	101
COc1ccc(CCNC(=S)N2CCN(S(=O)(=O)c3ccc(F)cc3)CC2)cc1	Desmoglein-3 (Homo sapiens) (UniProt P32926)	%	63.3
COc1ccc(CCC(=O)N2CCN(S(=O)(=O)c3ccc(OC)cc3)CC2)cc1	Desmoglein-3 (Homo sapiens) (UniProt P32926)	%	96.6
Cc1ccc(NC(=O)c2cc3ccccc3o2)cc1	Desmoglein-3 (Homo sapiens) (UniProt P32926)	%	110
O=C(C1=C(O)C(=O)N(Cc2ccccc2)C1c1ccco1)c1ccco1 (configuration not stated)	Desmoglein-3 (Homo sapiens) (UniProt P32926)	%	108
Cc1ccc(S(=O)(=O)N2CCCCC2)cc1NC(=O)c1cccnc1	Desmoglein-3 (Homo sapiens) (UniProt P32926)	%	103
CCCc1ccc(S(=O)(=O)N2CCN(C(=O)c3cc(C)on3)CC2)cc1	Desmoglein-3 (Homo sapiens) (UniProt P32926)	%	96.3
Cc1ccc(-n2nc3cc(C)c(NC(=O)c4cccnc4)cc3n2)cc1	Desmoglein-3 (Homo sapiens) (UniProt P32926)	%	78.3
O=C(NCC(F)(F)F)c1ccc(S(=O)(=O)NCCc2ccc3c(c2)OCCO3)cc1	Desmoglein-3 (Homo sapiens) (UniProt P32926)	%	97.1
O=C(c1cc(-c2ccccc2O)on1)N1CCCC1	Desmoglein-3 (Homo sapiens) (UniProt P32926)	%	105
COc1ccc(CCNC(=S)N2CCN(S(=O)(=O)c3ccc(Cl)cc3)CC2)cc1	Desmoglein-3 (Homo sapiens) (UniProt P32926)	%	106
